Assay read-out IC50; system under study: Lysosomal alpha-glucosidase (Rattus norvegicus, UniProt Q6P7A9).
Sequence (Q6P7A9 whole entry): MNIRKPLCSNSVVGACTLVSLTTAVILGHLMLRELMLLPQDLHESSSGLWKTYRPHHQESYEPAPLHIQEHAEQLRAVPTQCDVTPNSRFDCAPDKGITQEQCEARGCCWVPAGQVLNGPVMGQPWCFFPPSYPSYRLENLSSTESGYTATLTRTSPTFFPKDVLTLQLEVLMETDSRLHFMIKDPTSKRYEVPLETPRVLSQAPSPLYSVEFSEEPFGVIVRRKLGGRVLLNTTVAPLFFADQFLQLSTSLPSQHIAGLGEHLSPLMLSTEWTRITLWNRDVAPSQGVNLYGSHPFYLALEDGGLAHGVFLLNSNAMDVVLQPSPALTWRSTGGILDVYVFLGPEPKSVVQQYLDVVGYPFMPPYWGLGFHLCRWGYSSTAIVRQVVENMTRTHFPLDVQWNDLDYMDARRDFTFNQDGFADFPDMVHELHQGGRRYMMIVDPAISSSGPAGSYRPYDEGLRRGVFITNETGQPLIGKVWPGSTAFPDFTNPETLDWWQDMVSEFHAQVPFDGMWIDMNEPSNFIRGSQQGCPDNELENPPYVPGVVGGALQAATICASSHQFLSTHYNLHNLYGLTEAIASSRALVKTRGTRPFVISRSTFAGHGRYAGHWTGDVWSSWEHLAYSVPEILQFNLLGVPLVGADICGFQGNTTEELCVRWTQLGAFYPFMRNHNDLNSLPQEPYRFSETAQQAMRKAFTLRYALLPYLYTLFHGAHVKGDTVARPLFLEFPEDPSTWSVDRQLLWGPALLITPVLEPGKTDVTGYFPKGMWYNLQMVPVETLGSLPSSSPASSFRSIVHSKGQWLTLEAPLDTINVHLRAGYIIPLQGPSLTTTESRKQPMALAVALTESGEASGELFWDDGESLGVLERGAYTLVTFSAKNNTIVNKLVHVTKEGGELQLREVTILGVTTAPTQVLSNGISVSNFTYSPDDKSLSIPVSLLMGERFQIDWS
measurement-kind: IC50 (µM)

# compound, result-number
measured = [
    ("O=C(/C=C/c1ccc(O)c(O)c1)O[C@H]1C[C@@H](O)[C@H](O)[C@@H](O)[C@H]1O", 497),
]

(A) COc1ccc(/C=C/C(=O)O[C@H]2C[C@@H](O)[C@H](O)[C@@H](O)[C@H]2O)cc1O
(B) O=C(O)/C=C/c1ccc(O)c(O)c1 [3,4-Dihydroxycinnamate, XVII]
Could you tell me which of A and B has the lower IC50 reading? In your reply, give the label of the chosen option.
B

---

Biological target: Lysosomal alpha-glucosidase (Rattus norvegicus, UniProt Q6P7A9)
Test: Non-competitive inhibition of rat intestine maltase using maltose as substrate by Lineweaver-Burk plot analysis
measurement-kind: pKi
Notebook: values listed as pKi are -log10 of the concentration (mol/L).

Output pKi of O=C(/C=C/c1ccc(O)c(O)c1)O[C@@H]1C[C@@H](O)[C@H](O)[C@@H](O)[C@H]1O
4.19
